Exercise: state measured TG for each of the compounds provided.
# Organism: Rattus norvegicus
# protocol notes: Open TG-GATES - Regimen: Daily Repeat
# Format: toxicity, organism-based, Sprague-Dawley
# Design: regimen Daily Repeat, gender Male, age 6 weeks
# condition context: in vivo, po, 0 mg/kg, […], tissue Plasma, route gavage, dose level Control, time 28 day
// return numeric value only (unit: mg/dL, not printed)

Q) Need TG, item "Clc1c(Cl)c(Cl)c(Cl)c(Cl)c1Cl"
A) 140.6

Q) Need TG, item "CN(C)[C@@H]1C(O)=C(C(N)=O)C(=O)[C@@]2(O)C(O)=C3C(=O)c4c(O)cccc4[C@@](C)(O)[C@H]3C[C@@H]12"
A) 154.8

Q) Need TG, item "Cc1cccc(Nc2ccccc2C(=O)O)c1C"
A) 141.4

Q) Need TG, item CC(CN1c2ccccc2Sc2ccccc21)N(C)C (stereo not given)
A) 192.8

Q) Need TG, item "CCOC(=O)[C@H](CCc1ccccc1)N[C@@H](C)C(=O)N1CCC[C@H]1C(=O)O"
A) 128.2

Q) Need TG, item "C#C[C@]1(O)CC[C@H]2[C@@H]3CCC4=Cc5oncc5C[C@]4(C)[C@H]3CC[C@@]21C"
A) 118.2

Q) Need TG, item C1CCC(C(CC2CCCCN2)C2CCCCC2)CC1 (stereo not given)
A) 92.8

Q) Need TG, item "CN1C(C(=O)Nc2ccccn2)=C(O)c2sc(Cl)cc2S1(=O)=O"
A) 148.2

Q) Need TG, item "O=C(O)Cc1ccccc1Nc1c(Cl)cccc1Cl"
A) 145.6

Q) Need TG, item CC(=O)Nc1nnc(S(N)(=O)=O)s1 [ACETAZOLAMIDE]
A) 178.4

====

# Species on record: Rattus norvegicus
# protocol notes: Open TG-GATES - Regimen: Single
# Assay type: toxicity, organism-based, Sprague-Dawley
# Set-up: regimen Single, gender Male, age 6 weeks
# condition context: in vivo, po, 0 mg/kg, 24 h, tissue Plasma, route gavage, dose level Control
measured attribute: Cl (meq/L)
// return numeric value only (unit: meq/L, not printed)

Q) Need Cl, item COc1cc([C@@H]2c3cc4c(cc3[C@@H](O[C@@H]3O[C@@H]5CO[C@@H](C)O[C@H]5[C@H](O)[C@H]3O)[C@H]3COC(=O)[C@H]23)OCO4)cc(OC)c1O [ETOPOSIDE]
A) 104.6

Q) Need Cl, item "CN(C)[C@@H]1C(O)=C(C(N)=O)C(=O)[C@@]2(O)C(O)=C3C(=O)c4c(O)cccc4[C@@](C)(O)[C@H]3C[C@@H]12"
A) 105.2

Q) Need Cl, item "CN1C(C(=O)Nc2ccccn2)=C(O)c2sc(Cl)cc2S1(=O)=O"
A) 103.8

Q) Need Cl, item "O=[N+]([O-])c1ccc2c(c1)Cc1ccccc1-2"
A) 104.2

Q) Need Cl, item C1CCC(C(CC2CCCCN2)C2CCCCC2)CC1 (stereo not given)
A) 105.4

====

Exercise: state measured AST for each of the compounds provided.
# Organism: Rattus norvegicus
# protocol notes: Open TG-GATES - Regimen: Single
# Type: toxicity, organism-based, Sprague-Dawley
# Design: regimen Single, gender Male, age 6 weeks
# condition context: in vivo, po, 0 mg/kg, 9 h, tissue Plasma, route gavage, dose level Control
// return numeric value only (unit: IU/L, not printed)

Q) Need AST, item "CCOC(=O)[C@H](CCc1ccccc1)N[C@@H](C)C(=O)N1CCC[C@H]1C(=O)O"
A) 60.8

Q) Need AST, item "CN1C(C(=O)Nc2ccccn2)=C(O)c2sc(Cl)cc2S1(=O)=O"
A) 65.4

Q) Need AST, item COc1cc([C@@H]2c3cc4c(cc3[C@@H](O[C@@H]3O[C@@H]5CO[C@@H](C)O[C@H]5[C@H](O)[C@H]3O)[C@H]3COC(=O)[C@H]23)OCO4)cc(OC)c1O [ETOPOSIDE]
A) 58.2

Q) Need AST, item "Clc1c(Cl)c(Cl)c(Cl)c(Cl)c1Cl"
A) 62.4

Q) Need AST, item "CN(C)[C@@H]1C(O)=C(C(N)=O)C(=O)[C@@]2(O)C(O)=C3C(=O)c4c(O)cccc4[C@@](C)(O)[C@H]3C[C@@H]12"
A) 64.2

Q) Need AST, item "C#C[C@]1(O)CC[C@H]2[C@@H]3CCC4=Cc5oncc5C[C@]4(C)[C@H]3CC[C@@]21C"
A) 63.6

Q) Need AST, item "Cc1cccc(Nc2ccccc2C(=O)O)c1C"
A) 64.2

Q) Need AST, item C1CCC(C(CC2CCCCN2)C2CCCCC2)CC1 (stereo not given)
A) 62.2

Q) Need AST, item CC(CN1c2ccccc2Sc2ccccc21)N(C)C (stereo not given)
A) 68

Q) Need AST, item CC(=O)Nc1nnc(S(N)(=O)=O)s1 [ACETAZOLAMIDE]
A) 70.8

====

# Species: Rattus norvegicus
# protocol notes: Open TG-GATES - Regimen: Single
# Assay type: toxicity, organism-based, Sprague-Dawley
# Design: regimen Single, gender Male, age 6 weeks
# condition context: in vivo, po, 0 mg/kg, 3 h, tissue Plasma, route gavage, dose level Control
Exercise: state measured TBIL for each of the molecules provided.
// return numeric value only (unit: mg/dL, not printed)

Q) Need TBIL, item CC(CN1c2ccccc2Sc2ccccc21)N(C)C (centres undefined) [PROMETHAZINE]
A) 0.016

Q) Need TBIL, item CC(=O)Nc1nnc(S(N)(=O)=O)s1 [ACETAZOLAMIDE]
A) 0.018

Q) Need TBIL, item COc1cc([C@@H]2c3cc4c(cc3[C@@H](O[C@@H]3O[C@@H]5CO[C@@H](C)O[C@H]5[C@H](O)[C@H]3O)[C@H]3COC(=O)[C@H]23)OCO4)cc(OC)c1O [ETOPOSIDE]
A) 0.3

Q) Need TBIL, item Cc1cccc(Nc2ccccc2C(=O)O)c1C [MEFENAMIC ACID]
A) 0.1

====

# Species: Rattus norvegicus
# protocol notes: Open TG-GATES - Regimen: Single
# Assay type: toxicity, organism-based, Sprague-Dawley
# Set-up: regimen Single, gender Male, age 6 weeks
# condition context: in vivo, po, 0 mg/kg, 3 h, tissue Plasma, route gavage, dose level Control
Exercise: state measured gamma-GTP for each of the molecules provided.
// return numeric value only (unit: IU/L, not printed)

Q) Need gamma-GTP, item C1CCC(C(CC2CCCCN2)C2CCCCC2)CC1 (stereo not given)
A) 0.8

Q) Need gamma-GTP, item "C#C[C@]1(O)CC[C@H]2[C@@H]3CCC4=Cc5oncc5C[C@]4(C)[C@H]3CC[C@@]21C"
A) 2

Q) Need gamma-GTP, item "CN(C)[C@@H]1C(O)=C(C(N)=O)C(=O)[C@@]2(O)C(O)=C3C(=O)c4c(O)cccc4[C@@](C)(O)[C@H]3C[C@@H]12"
A) 1.4

Q) Need gamma-GTP, item COc1cc([C@@H]2c3cc4c(cc3[C@@H](O[C@@H]3O[C@@H]5CO[C@@H](C)O[C@H]5[C@H](O)[C@H]3O)[C@H]3COC(=O)[C@H]23)OCO4)cc(OC)c1O [ETOPOSIDE]
A) 1

Q) Need gamma-GTP, item CC(CN1c2ccccc2Sc2ccccc21)N(C)C (stereo not given)
A) 1.2

Q) Need gamma-GTP, item "CCOC(=O)[C@H](CCc1ccccc1)N[C@@H](C)C(=O)N1CCC[C@H]1C(=O)O"
A) 1.4

Q) Need gamma-GTP, item CC(=O)Nc1nnc(S(N)(=O)=O)s1 [ACETAZOLAMIDE]
A) 1

Q) Need gamma-GTP, item "Clc1c(Cl)c(Cl)c(Cl)c(Cl)c1Cl"
A) 1

Q) Need gamma-GTP, item "CN1C(C(=O)Nc2ccccn2)=C(O)c2sc(Cl)cc2S1(=O)=O"
A) 1.4

Q) Need gamma-GTP, item "Cc1cccc(Nc2ccccc2C(=O)O)c1C"
A) 1.2

====

# Species: Rattus norvegicus
# protocol notes: Open TG-GATES - Regimen: Single
# Type: toxicity, organism-based, Sprague-Dawley
# Design: regimen Single, gender Male, age 6 weeks
# condition context: in vivo, po, 0 mg/kg, 3 h, tissue Blood, route gavage, dose level Control
Exercise: state measured MCH for each of the molecules provided.
// return numeric value only (unit: pg, not printed)

Q) Need MCH, item COc1cc([C@@H]2c3cc4c(cc3[C@@H](O[C@@H]3O[C@@H]5CO[C@@H](C)O[C@H]5[C@H](O)[C@H]3O)[C@H]3COC(=O)[C@H]23)OCO4)cc(OC)c1O [ETOPOSIDE]
A) 22.4

Q) Need MCH, item Clc1c(Cl)c(Cl)c(Cl)c(Cl)c1Cl [PERCHLOROBENZENE]
A) 21.1

Q) Need MCH, item CC(CN1c2ccccc2Sc2ccccc21)N(C)C (stereo not drawn) [PROMETHAZINE]
A) 20.6

Q) Need MCH, item "CCOC(=O)[C@H](CCc1ccccc1)N[C@@H](C)C(=O)N1CCC[C@H]1C(=O)O"
A) 21.9

Q) Need MCH, item CC(=O)Nc1nnc(S(N)(=O)=O)s1 [ACETAZOLAMIDE]
A) 21.3

Q) Need MCH, item CN1C(C(=O)Nc2ccccn2)=C(O)c2sc(Cl)cc2S1(=O)=O [LORNOXICAM]
A) 21

Q) Need MCH, item CN(C)[C@@H]1C(O)=C(C(N)=O)C(=O)[C@@]2(O)C(O)=C3C(=O)c4c(O)cccc4[C@@](C)(O)[C@H]3C[C@@H]12 [TETRACYCLINE]
A) 22

Q) Need MCH, item Cc1cccc(Nc2ccccc2C(=O)O)c1C [MEFENAMIC ACID]
A) 21.9
